Molecular target: T1, human CD73 on cells (H322, MDA-MB-231, HT-144, T cells, CD73-transfected HEK293T) (human, UniProt P21589 27-549)
T1 sequence (looked up): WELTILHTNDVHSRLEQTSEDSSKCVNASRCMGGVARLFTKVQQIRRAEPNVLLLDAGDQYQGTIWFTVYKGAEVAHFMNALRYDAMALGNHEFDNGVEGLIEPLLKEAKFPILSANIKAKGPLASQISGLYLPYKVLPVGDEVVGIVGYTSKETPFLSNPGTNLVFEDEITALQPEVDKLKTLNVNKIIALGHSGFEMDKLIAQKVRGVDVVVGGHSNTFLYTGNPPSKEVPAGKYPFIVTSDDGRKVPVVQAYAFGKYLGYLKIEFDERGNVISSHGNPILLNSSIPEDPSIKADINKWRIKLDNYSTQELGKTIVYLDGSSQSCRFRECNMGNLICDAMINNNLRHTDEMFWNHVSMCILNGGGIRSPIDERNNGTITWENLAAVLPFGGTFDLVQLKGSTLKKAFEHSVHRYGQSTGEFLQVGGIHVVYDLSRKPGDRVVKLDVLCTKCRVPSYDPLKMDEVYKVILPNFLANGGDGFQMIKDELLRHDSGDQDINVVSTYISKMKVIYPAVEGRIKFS
Test: cell-based or functional assay
Metric name: IC50 of AMP degradation suppressive function, H322 cells

Example binders with recorded IC50 of AMP degradation suppressive function, H322 cells:
002_1_c antibody (antibody, V domains shown) VH: QVQMKQSGPELVKPGASVKIPCKASGYTFTDCNMDWVKQSHGESLEWIGDINPNNGGTIYNQKFKGKVTLTIDKSSSTAYMELRSLTSEDTAVYYCARTNWDYAMDYWGQGTSVTVSS VL: DIQMTQSPSSMYASLGERVTITCKASQDINSNLSWFQQKPGKSPKTLIYRANRLIDGVPSRFSGSGSGQDYSLTISSLEYEDMGIYYCLQYDVFPRTFGGGTKLELK; 0.042 µg/mL
002_5_c antibody (antibody, V domains shown) VH: QVQMKQSGPELVKPGASVKIPCKASGYTFTDSNMDWVKQSHGESLEWIGDINPNNGGTIYNQKFKGKVTLTIDKSSSTAYMELRSLTSEDTAVYYCARTNWDYAMDYWGQGTSVTVSS VL: DIQMTQSPSSMYASLGERVTITCKASQDINSDLSWFQQKPGKSPKTLIYRANRLIDGVPSRFSGSGSGQDYSLTISSLEYEDMGIYYCLQYDVFPRTFGGGTKLELK; 0.066 µg/mL
002_2_c antibody (antibody, V domains shown) VH: QVQMKQSGPELVKPGASVKIPCKASGYTFTDCNMDWVKQSHGESLEWIGDINPNNGGTIYNQKFKGKVTLTIDKSSSTAYMELRSLTSEDTAVYYCARTNWDYAMDYWGQGTSVTVSS VL: DIQMTQSPSSMYASLGERVTITCKASQDINSDLSWFQQKPGKSPKTLIYRANRLIDGVPSRFSGSGSGQDYSLTISSLEYEDMGIYYCLQYDVFPRTFGGGTKLELK; 0.077 µg/mL
002_3_c antibody (antibody, V domains shown) VH: QVQMKQSGPELVKPGASVKIPCKASGYTFTDCNMDWVKQSHGESLEWIGDINPNNGGTIYNQKFKGKVTLTIDKSSSTAYMELRSLTSEDTAVYYCARTNWDYAMDYWGQGTSVTVSS VL: DIQMTQSPSSMYASLGERVTITCKASQDINSQLSWFQQKPGKSPKTLIYRANRLIDGVPSRFSGSGSGQDYSLTISSLEYEDMGIYYCLQYDVFPRTFGGGTKLELK; 0.039 µg/mL
002_4_c antibody (antibody, V domains shown) VH: QVQMKQSGPELVKPGASVKIPCKASGYTFTDSNMDWVKQSHGESLEWIGDINPNNGGTIYNQKFKGKVTLTIDKSSSTAYMELRSLTSEDTAVYYCARTNWDYAMDYWGQGTSVTVSS VL: DIQMTQSPSSMYASLGERVTITCKASQDINSNLSWFQQKPGKSPKTLIYRANRLIDGVPSRFSGSGSGQDYSLTISSLEYEDMGIYYCLQYDVFPRTFGGGTKLELK; 0.038 µg/mL

Quick check: IC50 of AMP degradation suppressive function, H322 cells of 002_6_c antibody (antibody, V domains shown) VH: QVQMKQSGPELVKPGASVKIPCKASGYTFTDSNMDWVKQSHGESLEWIGDINPNNGGTIYNQKFKGKVTLTIDKSSSTAYMELRSLTSEDTAVYYCARTNWDYAMDYWGQGTSVTVSS VL: DIQMTQSPSSMYASLGERVTITCKASQDINSQLSWFQQKPGKSPKTLIYRANRLIDGVPSRFSGSGSGQDYSLTISSLEYEDMGIYYCLQYDVFPRTFGGGTKLELK ? 0.042 µg/mL
